IC50 by entry:
target: full-length NS3/NS4A-2 (HCV NS3 protease) (Hepatitis C virus genotype 1a); construct: Recombinant E. coli or Baculovirus full-length NS3 was diluted to 3.33 μM with assay buffer; made in house; host or cells: E. coli or baculovirus (BV) expression system; assay: NS3-NS4 protease assay / NS3 inhibition assay (RETS1 substrate, fluorescence kinetic read); assay type: biochemical; settings: recombinant E. coli or Baculovirus full-length NS3 with NS4A-2; read-out: NS3-NS4 IC50
Sequence (P27958 1027-1657): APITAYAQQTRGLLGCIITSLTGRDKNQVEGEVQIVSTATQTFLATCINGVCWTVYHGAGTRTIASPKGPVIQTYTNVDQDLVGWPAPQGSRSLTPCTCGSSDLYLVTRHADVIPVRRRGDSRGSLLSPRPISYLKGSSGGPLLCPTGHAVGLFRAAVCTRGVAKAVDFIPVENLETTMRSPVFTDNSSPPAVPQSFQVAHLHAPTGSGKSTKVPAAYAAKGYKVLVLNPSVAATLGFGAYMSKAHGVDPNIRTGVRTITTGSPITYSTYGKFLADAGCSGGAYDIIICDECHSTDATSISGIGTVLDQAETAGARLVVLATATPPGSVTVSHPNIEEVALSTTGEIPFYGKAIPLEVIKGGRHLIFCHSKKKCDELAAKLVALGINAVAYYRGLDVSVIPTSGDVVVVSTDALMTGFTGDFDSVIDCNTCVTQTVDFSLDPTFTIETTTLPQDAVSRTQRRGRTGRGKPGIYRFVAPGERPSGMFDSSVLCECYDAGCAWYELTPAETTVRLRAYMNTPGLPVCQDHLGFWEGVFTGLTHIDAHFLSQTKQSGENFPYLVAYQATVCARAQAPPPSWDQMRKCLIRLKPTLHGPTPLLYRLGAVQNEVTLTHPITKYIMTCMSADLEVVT
REPORTED ENDPOINT: IC50

COMPOUND	REPORTED ENDPOINT	OBSERVED RESULT
O=C(N[C@H]1CCCCC/C=C\[C@@H]2C[C@@]2(C(=O)O)NC(=O)[C@@H]2C[C@@H](OC(=O)N3Cc4cccc(F)c4C3)CN2C1=O)C1CCC1 [Compound 122]	IC50	< 0.1 µM
N#CNC(=O)[C@@]12C[C@H]1/C=C\CCCCC[C@H](NC(=O)C1CC1)C(=O)N1C[C@H](OC(=O)N3Cc4cccc(F)c4C3)CC1C(=O)N2 (some centres unmarked) [Compound 638]	IC50	< 1 µM
O=C1N[C@]2(C(=O)NS(=O)(=O)C3CC3)C[C@H]2/C=C\CCCCC[C@H](Nc2c(N3C4CCC3CC4)c(=O)c2=O)C(=O)N2C[C@H](OC(=O)N3Cc4cccc(F)c4C3)C[C@@H]12 [Compound 199]	IC50	< 0.1 µM
COc1cccc(S(=O)(=O)NC(=O)[C@@]23C[C@H]2/C=C\CCCCC[C@H](NC(=O)OC2CCCC2)C(=O)N2C[C@H](OC(=O)N4CCc5ccccc5C4)C[C@H]2C(=O)N3)c1 [Compound 188]	IC50	< 0.1 µM
CC(C)(C)CCN[C@H]1CCCCC/C=C\[C@@H]2C[C@@]2(C(=O)NS(=O)(=O)C2CC2)NC(=O)[C@@H]2C[C@@H](OC(=O)N3Cc4cccc(F)c4C3)CN2C1=O [Compound 912]	IC50	< 0.1 µM
O=C(N[C@H]1CCCCC/C=C\[C@@H]2C[C@@]2(C(=O)NS(=O)(=O)Nc2ccc(Cl)cc2)NC(=O)[C@@H]2CCCN2C1=O)C1CCC1 [Compound 427]	IC50	> 10 µM
O=C(N[C@H]1CCCCCCC[C@@H]2C[C@@]2(C(=O)NS(=O)(=O)c2ccccc2)NC(=O)C2Cc3cc(Oc4cccc(Cl)c4)ccc3CN2C1=O)OC1CCCC1 (some centres unmarked) [Compound 2010]	IC50	< 10 µM
O=C(N[C@H]1CCCCC/C=C\[C@@H]2C[C@@]2(C(=O)O)NC(=O)C2Cc3cc(Oc4cccc(Cl)c4)ccc3CN2C1=O)OC1CCCC1 (some centres unmarked) [Compound 2002]	IC50	< 10 µM
CC(C)(C)OC(=O)N[C@H]1CCCCC/C=C\[C@@H]2C[C@@]2(C(=O)NS(=O)(=O)C2CC2)NC(=O)C2Cc3ccccc3CN2C1=O (some centres unmarked) [Compound 2009]	IC50	< 10 µM
CC(C)(C)OC(=O)N[C@H]1CCCCC/C=C\[C@@H]2C[C@@]2(CO)NC(=O)[C@@H]2C[C@@H](OC(=O)N3Cc4cccc(F)c4C3)CN2C1=O [Compound 153]	IC50	> 10 µM
CN(c1ccc(F)cc1)S(=O)(=O)NC(=O)[C@@]12C[C@H]1/C=C\CCCCC[C@H](NC(=O)OC(C)(C)C)C(=O)N1CCC[C@H]1C(=O)N2 [Compound 2229]	IC50	< 10 µM
